Test: Selectivity index, ratio of IC50 for human HeLa cells to IC50 for synchronized ring stage of chloroquine-sensitive Plasmodium falciparum 3D7 infected in human erythrocytes
Type: toxicity, cell-based
Settings: read-out: Ratio IC50
parameter measured: selectivity ratio

>>> df
                        structure_as_smiles  value_measured
0  C=CCOc1c(OC)cc(/C=C/C(=O)c2ccccc2)cc1-c1cc(/C=C/C(=O)c2ccccc2)cc(OC)c1OCC=C          > 28.6
1  C=CCOc1c(OC)cc(/C=C/C(=O)c2cc(OC)c(OC)c(OC)c2)cc1-c1cc(/C=C/C(=O)c2cc(OC)c(OC)c(OC)c2)cc(OC)c1OCC=C          > 36.4

Let us examine a further case.
# selectivity ratio lookup, item "COc1cc(/C=C/C(=O)c2ccccc2)cc(-c2cc(/C=C/C(=O)c3ccccc3)cc(OC)c2OC)c1OC" 12.4

###

Items are presented alongside their recorded selectivity ratio.
Test: Selectivity index, ratio of IC50 for human HeLa cells to IC50 for synchronized ring stage of chloroquine-sensitive Plasmodium falciparum 3D7 infected in human erythrocytes
Assay type: toxicity, cell-based
Conditions: read-out: Ratio IC50

In [3]: df
Out[3]:
                                   molecule  value_measured
0  C=CCc1cc(/C=C/C(=O)c2cccc(C(=O)/C=C/c3cc(CC=C)c(OC)c(OC)c3)c2)cc(OC)c1OC            11.2
1  C[C@@H]1CC[C@H]2[C@@H](C)C(=O)O[C@@H]3O[C@@]4(C)CC[C@@H]1[C@]32OO4 [ARTEMISININ]           > 200
2  C=CCOc1ccc(/C=C/C(=O)c2cccc(C(=O)/C=C/c3ccc(OCC=C)c(OCC=C)c3)c2)cc1OCC=C           > 5.6

# selectivity ratio lookup, item "C=CCOc1ccc(C(=O)/C=C/c2cc(OC)c(OCC=C)c(-c3cc(/C=C/C(=O)c4ccc(OCC=C)cc4)cc(OC)c3OCC=C)c2)cc1" > 100

###

Items are presented alongside their recorded selectivity ratio.
Test: Selectivity index, ratio of IC50 for mouse L929 cells to IC50 for synchronized ring stage of chloroquine-sensitive Plasmodium falciparum 3D7 infected in human erythrocytes
Format: toxicity, cell-based
Conditions: read-out: Ratio IC50

                        structure_as_smiles  parameter_measured  value_measured
0  C=CCOc1c(OC)cc(/C=C/C(=O)c2ccc(OCCC)cc2)cc1-c1cc(/C=C/C(=O)c2ccc(OCCC)cc2)cc(OC)c1OCC=C   selectivity ratio          > 66.7
1  C=CCOc1ccc(C(=O)/C=C/c2cc(OC)c(OCC=C)c(-c3cc(/C=C/C(=O)c4ccc(OCC=C)cc4)cc(OC)c3OCC=C)c2)cc1   selectivity ratio           > 100
2  C=CCOc1c(OC)cc(/C=C/C(=O)c2ccc3c(c2)OCO3)cc1-c1cc(/C=C/C(=O)c2ccc3c(c2)OCO3)cc(OC)c1OCC=C   selectivity ratio           > 2.6

# selectivity ratio lookup, item "C=CCOc1ccc(/C=C/C(=O)c2cccc(C(=O)/C=C/c3ccc(OCC=C)c(OCC=C)c3)c2)cc1OCC=C" > 5.6

# selectivity ratio lookup, item "C=CCOc1c(OC)cc(/C=C/C(=O)c2cc(OC)c(OC)c(OC)c2)cc1-c1cc(/C=C/C(=O)c2cc(OC)c(OC)c(OC)c2)cc(OC)c1OCC=C" > 36.4

# selectivity ratio lookup, item "C[C@@H]1CC[C@H]2[C@@H](C)C(=O)O[C@@H]3O[C@@]4(C)CC[C@@H]1[C@]32OO4" > 200
